Entries and their measured T/C follow.
system: nude mice, LX-1 lung xenograft intrarenal, tumor weight T/C; test: NCI In Vivo Anticancer Drug Screen. Data for tumor model Human Lung LX-1 Xenograft (intrarenal inoculation) in NU/NU Swiss (nude) mice; conditions: endpoint: mean tumor weight change; dose: 800.0 mg/kg/injection; schedule: Q04DX003 (sc); vehicle: saline; higher = larger tumour
Records with an inconclusive call do not appear.
METRIC: T/C

{"MOLECULE": "NC(=O)CC(N)C(=O)O (stereo not drawn)", "ASSAYED SYSTEM": "nude mice, LX-1 lung xenograft intrarenal, tumor weight T/C", "METRIC": "T/C", "RESULT": "87 % of control"}
{"MOLECULE": "COC1OC(CO)C(O)C(NC(=O)N(C)N=O)C1O (stereo not drawn)", "ASSAYED SYSTEM": "nude mice, LX-1 lung xenograft intrarenal, tumor weight T/C", "METRIC": "T/C", "RESULT": "31 % of control"}
{"MOLECULE": "Nc1ncn(C2OC(CO)C(O)C2O)c(=O)n1 (stereo not drawn)", "ASSAYED SYSTEM": "nude mice, LX-1 lung xenograft intrarenal, tumor weight T/C", "METRIC": "T/C", "RESULT": "16 % of control"}
{"MOLECULE": "NCCc1cc(O)c(O)c(O)c1", "ASSAYED SYSTEM": "nude mice, LX-1 lung xenograft intrarenal, tumor weight T/C", "METRIC": "T/C", "RESULT": "91 % of control"}
{"MOLECULE": "Nc1ncnc2c1ncn2C1OC(CO)C(O)C1O (stereo not drawn)", "ASSAYED SYSTEM": "nude mice, LX-1 lung xenograft intrarenal, tumor weight T/C", "METRIC": "T/C", "RESULT": "117 % of control"}
{"MOLECULE": "CC(C)NCC(O)COc1ccc(O)c(O)c1 (stereo not drawn)", "ASSAYED SYSTEM": "nude mice, LX-1 lung xenograft intrarenal, tumor weight T/C", "METRIC": "T/C", "RESULT": "54 % of control"}
{"MOLECULE": "Cc1cn(C2CC(O)C(CO)O2)c(=O)[nH]c1=O (stereo not drawn)", "ASSAYED SYSTEM": "nude mice, LX-1 lung xenograft intrarenal, tumor weight T/C", "METRIC": "T/C", "RESULT": "94 % of control"}
{"MOLECULE": "O=[N+]([O-])O.[Ga]", "ASSAYED SYSTEM": "nude mice, LX-1 lung xenograft intrarenal, tumor weight T/C", "METRIC": "T/C", "RESULT": "83 % of control"}

---

test system: nude mice, LX-1 lung xenograft intrarenal, tumor weight T/C; experiment: NCI In Vivo Anticancer Drug Screen. Data for tumor model Human Lung LX-1 Xenograft (intrarenal inoculation) in NU/NU Swiss (nude) mice; details: endpoint: mean tumor weight change; dose: 600.0 mg/kg/injection; schedule: Q04DX003 (sc); vehicle: water; higher = larger tumour
Results filed as inconclusive are left out.

{"COMPOUND": "NC(=O)Oc1cccc(OC(N)=O)c1", "T/C": "89 % of control"}
{"COMPOUND": "Nc1ccn(C2OC(CO)C(O)C2O)c(=O)n1 (centres undefined)", "T/C": "47 % of control"}
{"COMPOUND": "ClCC[N+]12CC[N+](CCCl)(CC1)C2", "T/C": "54 % of control"}
{"COMPOUND": "Cc1noc(N)c1N", "T/C": "106 % of control"}
{"COMPOUND": "CCCCNC(C)C1(O)Cc2c(O)c3c(c(O)c2C(OC2CC(N)C(O)C(C)O2)C1)C(=O)c1c(OC)cccc1C3=O (centres undefined)", "T/C": "84 % of control"}
{"COMPOUND": "BrC1CC(Br)c2c1c1c(c3c2C(Br)CC3Br)C(Br)CC1Br (centres undefined)", "T/C": "43 % of control"}
{"COMPOUND": "CC(C)[C@](O)(C(=O)OCC1=CCN2CC[C@@H](O)[C@@H]12)[C@H](C)O", "T/C": "82 % of control"}
{"COMPOUND": "COc1ccc(OC)c(Cc2cnc3nc(N)nc(N)c3c2C)c1", "T/C": "94 % of control"}
{"COMPOUND": "CCCCCCCCCCCC(=O)NC1CC(O[C@H]2C[C@](O)(C(=O)CO)Cc3c(O)c4c(c(O)c32)C(=O)c2c(OC)cccc2C4=O)OC(C)C1O (some centres undefined)", "T/C": "76 % of control"}
